Provide the reported Flux of each item.
# System: wild-type Yarrowia lipolytica
# assay_details: Chemo-stat fermentation with cell retention using NVR as carbon and energy source
# protocol_conditions: steady state, 2% (v/v) NVR, ~215 mL/h, biomass dilution rate ~0.025 h^-1

Request: Input O=C(O)CCCC(=O)O , output reported Flux.
Response: 12 % of valerate uptake

Request: Input O=C(O)CCCCO [5-hydroxyvaleric acid] , output reported Flux.
Response: 32 % of valerate uptake

Request: Input CCCCCC(=O)O , output reported Flux.
Response: 42 % of valerate uptake

Request: Input O=C1CCCO1 , output reported Flux.
Response: 0 % of valerate uptake

Request: Input O=C(O)CCCCCO [6-hydroxycaproic acid] , output reported Flux.
Response: 18 % of valerate uptake

Request: Input CCCC(=O)O , output reported Flux.
Response: 7 % of valerate uptake
